subject.of.test: T1, mouse GLP-1 receptor endogenously expressed in βTC6 cells (mouse, UniProt O35659 22-463)
T1 sequence (looked up): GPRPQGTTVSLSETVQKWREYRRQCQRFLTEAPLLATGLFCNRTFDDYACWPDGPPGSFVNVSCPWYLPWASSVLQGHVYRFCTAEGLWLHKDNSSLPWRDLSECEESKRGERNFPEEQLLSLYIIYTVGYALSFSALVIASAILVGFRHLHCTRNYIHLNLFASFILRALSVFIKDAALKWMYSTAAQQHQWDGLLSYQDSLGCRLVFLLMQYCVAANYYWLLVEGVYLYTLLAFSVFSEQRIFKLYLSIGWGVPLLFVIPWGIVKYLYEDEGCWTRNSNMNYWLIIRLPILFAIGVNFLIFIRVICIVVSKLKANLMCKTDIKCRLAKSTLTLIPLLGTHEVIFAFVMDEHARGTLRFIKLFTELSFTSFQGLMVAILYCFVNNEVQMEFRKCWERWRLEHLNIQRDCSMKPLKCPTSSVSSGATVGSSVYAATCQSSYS
protocol.description: cell-based or functional assay
Numbered stars: 1 amine (or outer) side, 2 acyl side, 3 side chain; on linkers, the order of the positions; unused ones are H or OH. Square brackets hold non-standard residues; d marks the D form. Ends that are not written are not given here. A^u = urea/ureido (oligourea) residue with alanine side chain, C[C@@H](CNC(=O)[*:2])N[*:1]; Au = A^u, ureido (oligourea) alanine residue, C[C@@H](CNC(=O)[*:2])N[*:1]; E^u = urea/ureido residue with glutamic acid side chain; Y^u = urea/ureido residue with tyrosine side chain
Please go through the items and note down their EC50 (nM), cAMP production functional assay.

# EC50 (nM), cAMP production functional assay (binder: HGEGTFTSDVSSY[Y^u][E^u][A^u]AAKEFIAWLVKGRG-NH2 [GG2[Y^UE^UA^U]^14-17] ) is 0.18 nM

The reported EC50 (nM), cAMP production functional assay of the binder H-HGEGTFTSDVSSY[Au][Au][Au]AAKEFIAWLVKGRG-NH2 (also: oligourea (urea) backbone at A^u units) [GG2[A^UA^UA^U]^14-17] was 353 nM

binder HGEGTFTSDVSS[Au][Au][Au]QAAKEFIAWLVKGRG-NH2 (also: oligourea (urea) backbone at A^u units) [GG2[A^UA^UA^U]^13-16] , EC50 (nM), cAMP production functional assay observed: > 10000 nM

Lab note: HGEGTFTSDVSSYLEGQAAKEXXXLVKGRG (ureido (oligourea) residues F^uα I^u A^u at positions 22-24 of the hybrid, replacing residues 22-25 of GLP-1-G2; C-terminal amide) [GG2[F^UαI^UA^U]^22-25] gave EC50 (nM), cAMP production functional assay of 62 nM

Reported EC50 (nM), cAMP production functional assay of HGEGTFTSDV[A^u][Y^u][A^u]EGQAAKEFIAWLVKGRG-NH2 [GG2[A^UY^UA^U]^11-14] : 1.6 nM
